Tested on: HCT-15
Assay: Cytotoxicity against multidrug-resistant human HCT15 cells by thymidine incorporation assay
Format: functional, cell-based
Peptide text beside a SMILES is read from it.

[
  {
    "compound": "CC(C)C[C@@H]1NC(=O)[C@H](CC(C)C)NC(=O)[C@@H](Cc2ccc(O)cc2)NC(=O)[C@H](CC(C)C)NC(=O)[C@H](C(C)C)NC1=O (HELM PEPTIDE1{L.L.V.L.[dY]}$PEPTIDE1,PEPTIDE1,1:R1-5:R2$$$V2.0)",
    "IC50": "1 µM"
  },
  {
    "compound": "CC(C)C[C@@H]1NC(=O)[C@H](Cc2ccccc2)NC(=O)[C@@H](CC(C)C)NC(=O)[C@H](C(C)C)NC(=O)[C@H](CC(C)C)NC1=O (HELM PEPTIDE1{F.L.L.V.[dL]}$PEPTIDE1,PEPTIDE1,1:R1-5:R2$$$V2.0)",
    "IC50": "> 50 µM"
  }
]
